# SYSTEM: biotinylated CD59 (Homo sapiens)
# Construct: Recombinant soluble human CD59 with an additional C-terminal cysteine residue
# Sequence (P13987 26-102 limits assumed): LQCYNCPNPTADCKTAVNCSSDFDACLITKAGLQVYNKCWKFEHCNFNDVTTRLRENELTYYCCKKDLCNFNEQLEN
# ASSAY SUMMARY: mRNA-display cyclic peptide screen against CD59-biotin, NGS abundance after 6th selection round
# MEASUREMENT PARAMETERS: NGS sample Seq I, sheet R6 (6th selection round)
Each entry below lists one item and its recorded Counts (raw counts for peptide sequence), Seq I value.
PARAMETER: Counts (raw counts for peptide sequence), Seq I

MONOMER SEQUENCE: WRDRFDQCAL
MEASURED: 67
--
MONOMER SEQUENCE: KWGSSFFTLYRV
MEASURED: 49
--
MONOMER SEQUENCE: GYKNECHSFNW
MEASURED: 40
--
MONOMER SEQUENCE: SACGNRQIQYY
MEASURED: 51
--
MONOMER SEQUENCE: WIRGNRDESLG
MEASURED: 46
--
MONOMER SEQUENCE: SAWGNRLIQYY
MEASURED: 80
--
MONOMER SEQUENCE: FVRGDLYSALG
MEASURED: 80
--
MONOMER SEQUENCE: LWGTHSYVYYRP
MEASURED: 46
--
MONOMER SEQUENCE: ASWLPSPCKFS
MEASURED: 73
--
MONOMER SEQUENCE: SWTWGNRTSVRG
MEASURED: 36
--
MONOMER SEQUENCE: SAWGDRQIQYY
MEASURED: 64
--
MONOMER SEQUENCE: TAWGNRQIQYY
MEASURED: 73
--
MONOMER SEQUENCE: FVTGNRDHTRV
MEASURED: 35
--
MONOMER SEQUENCE: WIYGGRHFRLS
MEASURED: 82
--
MONOMER SEQUENCE: FVRGNRYSVLG
MEASURED: 64
--
MONOMER SEQUENCE: CFAKRIVALHST
MEASURED: 54
--
MONOMER SEQUENCE: RCWVRGSRNYT
MEASURED: 45
--
MONOMER SEQUENCE: VARGSKDWRWS
MEASURED: 41
--
MONOMER SEQUENCE: VYGSRYASIPFC
MEASURED: 45
--
MONOMER SEQUENCE: CFSSRTSLISGV
MEASURED: 27
--
MONOMER SEQUENCE: FVRGDLYSVIG
MEASURED: 54
--
MONOMER SEQUENCE: HVYGNRSFTRG
MEASURED: 97
--
MONOMER SEQUENCE: CFSRRVTYPHQV
MEASURED: 31
--
MONOMER SEQUENCE: CCGGRTFIYAWS
MEASURED: 44
--
MONOMER SEQUENCE: FVLGNRHTIVG
MEASURED: 57
--
MONOMER SEQUENCE: VLCHRWHVGSHR
MEASURED: 54
--
MONOMER SEQUENCE: HSYGSSQIAYH
MEASURED: 74
--
MONOMER SEQUENCE: HCWVRGSRNYS
MEASURED: 46
--
MONOMER SEQUENCE: DYNRIVWGRGNAAAAAAARTGGG
MEASURED: 89
--
MONOMER SEQUENCE: CSAGRLTIDAV
MEASURED: 37
--
MONOMER SEQUENCE: LWGTHSYTYYRP
MEASURED: 60
--
MONOMER SEQUENCE: CFAGRLTIDAA
MEASURED: 78
--
MONOMER SEQUENCE: FVSGNRDHTRG
MEASURED: 51
--
MONOMER SEQUENCE: CFVGRLTLTST
MEASURED: 65
--
MONOMER SEQUENCE: RCWASGSRDWR
MEASURED: 95
--
MONOMER SEQUENCE: CSRLTSRGWT
MEASURED: 62
--
MONOMER SEQUENCE: TLSTNRDLIRLLAAAAAAARTGGG
MEASURED: 57
--
MONOMER SEQUENCE: GRRNECLSRTS
MEASURED: 68
--
MONOMER SEQUENCE: DCWVRGSRNYT
MEASURED: 62
--
MONOMER SEQUENCE: FVTGNSDHTRG
MEASURED: 52
--
MONOMER SEQUENCE: CYSLRLGPETV
MEASURED: 37

* * *

# SYSTEM: biotinylated CD59 (Homo sapiens, UniProt P13987)
# Construct: Recombinant soluble human CD59 with an additional C-terminal cysteine residue
# Sequence (P13987 26-102 limits assumed): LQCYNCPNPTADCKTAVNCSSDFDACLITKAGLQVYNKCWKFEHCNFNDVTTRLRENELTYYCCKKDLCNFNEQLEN
# ASSAY SUMMARY: mRNA-display cyclic peptide screen against CD59-biotin, NGS abundance after 6th selection round
# MEASUREMENT PARAMETERS: NGS sample Seq II, sheet R6 (6th selection round)
We use 5 as the dividing line for Counts (raw counts for peptide sequence), Seq II: on or above the line is True, below is False.

MONOMER SEQUENCE: FVRGDLYSILG
ASSIGNED CLASS: True
//
MONOMER SEQUENCE: FIRGNSTSVLY
ASSIGNED CLASS: True
//
MONOMER SEQUENCE: CFAGRLTIDAA
ASSIGNED CLASS: False
//
MONOMER SEQUENCE: SAWGNRQIQYH
ASSIGNED CLASS: True
//
MONOMER SEQUENCE: LWGTHSYVYYRP
ASSIGNED CLASS: True
//
MONOMER SEQUENCE: SAWGNRYIAYY
ASSIGNED CLASS: True

* * *

# SYSTEM: biotinylated CD59 (Homo sapiens, UniProt P13987)
# Construct: Recombinant soluble human CD59 with an additional C-terminal cysteine residue
# Sequence (P13987 26-102 limits assumed): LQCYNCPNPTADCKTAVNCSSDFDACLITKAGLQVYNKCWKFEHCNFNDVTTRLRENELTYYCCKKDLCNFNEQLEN
# ASSAY SUMMARY: mRNA-display cyclic peptide screen against CD59-biotin, NGS abundance after 6th selection round
# MEASUREMENT PARAMETERS: counts normalised by total counts of sample Seq I; percentage of the pool, sheet R6
Measured Percentage Seq I determines class: low end (below 0.03%), middle (0.03% to below 0.2%), high end (0.2% or more)

SUBSTANCE: YCWVRGSRNYT
SYSTEM: biotinylated CD59 (Homo sapiens, UniProt P13987)
ASSIGNED CLASS: middle

SUBSTANCE: LCSVRGSNDWI
SYSTEM: biotinylated CD59 (Homo sapiens, UniProt P13987)
ASSIGNED CLASS: middle

SUBSTANCE: SWTWGNRSTVRG
SYSTEM: biotinylated CD59 (Homo sapiens, UniProt P13987)
ASSIGNED CLASS: low end

SUBSTANCE: SAWGNRQIQYF
SYSTEM: biotinylated CD59 (Homo sapiens, UniProt P13987)
ASSIGNED CLASS: low end

SUBSTANCE: CFARRLSASSGT
SYSTEM: biotinylated CD59 (Homo sapiens, UniProt P13987)
ASSIGNED CLASS: low end

SUBSTANCE: WATGSATFSSG
SYSTEM: biotinylated CD59 (Homo sapiens, UniProt P13987)
ASSIGNED CLASS: high end

SUBSTANCE: CFTNRLDNSST
SYSTEM: biotinylated CD59 (Homo sapiens, UniProt P13987)
ASSIGNED CLASS: middle

SUBSTANCE: CFAGRLTVDAV
SYSTEM: biotinylated CD59 (Homo sapiens, UniProt P13987)
ASSIGNED CLASS: middle

SUBSTANCE: RIGTSTCPFKFS
SYSTEM: biotinylated CD59 (Homo sapiens, UniProt P13987)
ASSIGNED CLASS: low end

SUBSTANCE: CFSHRSNSDGI
SYSTEM: biotinylated CD59 (Homo sapiens, UniProt P13987)
ASSIGNED CLASS: middle

SUBSTANCE: SWTWGNGSSVRG
SYSTEM: biotinylated CD59 (Homo sapiens, UniProt P13987)
ASSIGNED CLASS: middle

SUBSTANCE: FQRGTRSTSWG
SYSTEM: biotinylated CD59 (Homo sapiens, UniProt P13987)
ASSIGNED CLASS: middle

SUBSTANCE: LCYVKGSKNFT
SYSTEM: biotinylated CD59 (Homo sapiens, UniProt P13987)
ASSIGNED CLASS: middle

SUBSTANCE: CFSRRLTAGAV
SYSTEM: biotinylated CD59 (Homo sapiens, UniProt P13987)
ASSIGNED CLASS: middle

SUBSTANCE: IARGDWNHQFY
SYSTEM: biotinylated CD59 (Homo sapiens, UniProt P13987)
ASSIGNED CLASS: high end

SUBSTANCE: CFAKRLSLDAL
SYSTEM: biotinylated CD59 (Homo sapiens, UniProt P13987)
ASSIGNED CLASS: middle

SUBSTANCE: CAWGNRHIAYY
SYSTEM: biotinylated CD59 (Homo sapiens, UniProt P13987)
ASSIGNED CLASS: middle

SUBSTANCE: CYGGRTSIYAWS
SYSTEM: biotinylated CD59 (Homo sapiens, UniProt P13987)
ASSIGNED CLASS: middle

SUBSTANCE: FVTGNRDHTRG
SYSTEM: biotinylated CD59 (Homo sapiens, UniProt P13987)
ASSIGNED CLASS: high end

SUBSTANCE: VKYGNSNFVRE
SYSTEM: biotinylated CD59 (Homo sapiens, UniProt P13987)
ASSIGNED CLASS: middle

SUBSTANCE: IIRGNRLTKYE
SYSTEM: biotinylated CD59 (Homo sapiens, UniProt P13987)
ASSIGNED CLASS: low end

SUBSTANCE: CYGGRTFTYAWS
SYSTEM: biotinylated CD59 (Homo sapiens, UniProt P13987)
ASSIGNED CLASS: high end

SUBSTANCE: CYGNSHASWG
SYSTEM: biotinylated CD59 (Homo sapiens, UniProt P13987)
ASSIGNED CLASS: high end

SUBSTANCE: FVSGNSRFRRE
SYSTEM: biotinylated CD59 (Homo sapiens, UniProt P13987)
ASSIGNED CLASS: middle

SUBSTANCE: SAWGNRQIQY+
SYSTEM: biotinylated CD59 (Homo sapiens, UniProt P13987)
ASSIGNED CLASS: low end

SUBSTANCE: GRLNECHVIWP
SYSTEM: biotinylated CD59 (Homo sapiens, UniProt P13987)
ASSIGNED CLASS: high end

SUBSTANCE: QWNRWYGMDEL
SYSTEM: biotinylated CD59 (Homo sapiens, UniProt P13987)
ASSIGNED CLASS: high end

SUBSTANCE: IASGSLHFVFY
SYSTEM: biotinylated CD59 (Homo sapiens, UniProt P13987)
ASSIGNED CLASS: low end

SUBSTANCE: SAWGNRQIQYC
SYSTEM: biotinylated CD59 (Homo sapiens, UniProt P13987)
ASSIGNED CLASS: middle

SUBSTANCE: LCYVKGSKDFT
SYSTEM: biotinylated CD59 (Homo sapiens, UniProt P13987)
ASSIGNED CLASS: low end

SUBSTANCE: EIRGALNWVRG
SYSTEM: biotinylated CD59 (Homo sapiens, UniProt P13987)
ASSIGNED CLASS: middle

SUBSTANCE: HCWVRGSRNYA
SYSTEM: biotinylated CD59 (Homo sapiens, UniProt P13987)
ASSIGNED CLASS: low end

SUBSTANCE: IALGDRTFSFG
SYSTEM: biotinylated CD59 (Homo sapiens, UniProt P13987)
ASSIGNED CLASS: high end

SUBSTANCE: CFAGRPTIDAV
SYSTEM: biotinylated CD59 (Homo sapiens, UniProt P13987)
ASSIGNED CLASS: low end

SUBSTANCE: YARGNNASQFF
SYSTEM: biotinylated CD59 (Homo sapiens, UniProt P13987)
ASSIGNED CLASS: middle

SUBSTANCE: CFAARARNNQTV
SYSTEM: biotinylated CD59 (Homo sapiens, UniProt P13987)
ASSIGNED CLASS: middle

SUBSTANCE: YAQGDKLTARG
SYSTEM: biotinylated CD59 (Homo sapiens, UniProt P13987)
ASSIGNED CLASS: low end

SUBSTANCE: WRDRFDQCVL
SYSTEM: biotinylated CD59 (Homo sapiens, UniProt P13987)
ASSIGNED CLASS: high end

SUBSTANCE: LYGNRDYSFYRP
SYSTEM: biotinylated CD59 (Homo sapiens, UniProt P13987)
ASSIGNED CLASS: middle

SUBSTANCE: TFRKRLTATCGT
SYSTEM: biotinylated CD59 (Homo sapiens, UniProt P13987)
ASSIGNED CLASS: low end

SUBSTANCE: CFARRLSASFGT
SYSTEM: biotinylated CD59 (Homo sapiens, UniProt P13987)
ASSIGNED CLASS: high end

Values compiled from paper PMC12207370.
